The values you see were collected from ChEMBL document CHEMBL1146069.

test: Partition coefficient of the compound, log P; format: physicochemical; details: octanol/water
# Lookup of reported logP keyed by entry

OC[C@H]1O[C@@H](SCCOCCOc2ccc(-c3c4nc(c(-c5ccccc5)c5ccc([nH]5)c(-c5ccc(OCCOCCS[C@@H]6O[C@H](CO)[C@H](O)[C@@H](O)[C@H]6O)cc5)c5ccc([nH]5)c(-c5ccc(OCCOCCS[C@@H]6O[C@H](CO)[C@H](O)[C@@H](O)[C@H]6O)cc5)c5nc3C=C5)C=C4)cc2)[C@H](O)[C@H](O)[C@H]1O -0.07
OCCOCCOc1ccc(-c2c3nc(c(-c4ccccc4)c4ccc([nH]4)c(-c4ccc(OCCOCCO)cc4)c4ccc([nH]4)c(-c4ccc(OCCOCCO)cc4)c4nc2C=C4)C=C3)cc1 > 2
OC[C@H]1O[C@H](OCCOCCOc2ccc(-c3c4nc(c(-c5ccccc5)c5ccc([nH]5)c(-c5ccc(OCCOCCO[C@H]6O[C@H](CO)[C@H](O)[C@@H](O)[C@H]6O)cc5)c5ccc([nH]5)c(-c5ccc(OCCOCCO[C@H]6O[C@H](CO)[C@H](O)[C@@H](O)[C@H]6O)cc5)c5nc3C=C5)C=C4)cc2)[C@H](O)[C@H](O)[C@H]1O 0.5

Please find the next compound below.
Prompt line: Please list logP recorded for the compound "OC[C@H]1O[C@H](OCCOCCOc2ccc(-c3c4nc(c(-c5ccccc5)c5ccc([nH]5)c(-c5ccc(OCCOCCO[C@H]6O[C@H](CO)[C@@H](O)[C@H](O)[C@@H]6O)cc5)c5ccc([nH]5)c(-c5ccc(OCCOCCO[C@H]6O[C@H](CO)[C@@H](O)[C@H](O)[C@@H]6O)cc5)c5nc3C=C5)C=C4)cc2)[C@@H](O)[C@@H](O)[C@@H]1O"
Response line: 0.02

###

test: Partition coefficient of the compound, log P; format: physicochemical; conditions: octanol/water
logP listing for selected compounds.
Please reply with the value in numeric form only.

OC[C@H]1O[C@@H](OCCOCCOc2ccc(-c3c4nc(c(-c5ccccc5)c5ccc([nH]5)c(-c5ccc(OCCOCCO[C@@H]6O[C@H](CO)[C@H](O)[C@@H](O)[C@H]6O)cc5)c5ccc([nH]5)c(-c5ccc(OCCOCCO[C@@H]6O[C@H](CO)[C@H](O)[C@@H](O)[C@H]6O)cc5)c5nc3C=C5)C=C4)cc2)[C@H](O)[C@H](O)[C@H]1O 0.23
OC[C@H]1O[C@H](SCCOCCOc2ccc(-c3c4nc(c(-c5ccccc5)c5ccc([nH]5)c(-c5ccc(OCCOCCS[C@H]6O[C@H](CO)[C@@H](O)[C@H](O)[C@@H]6O)cc5)c5ccc([nH]5)c(-c5ccc(OCCOCCS[C@H]6O[C@H](CO)[C@@H](O)[C@H](O)[C@@H]6O)cc5)c5nc3C=C5)C=C4)cc2)[C@@H](O)[C@@H](O)[C@@H]1O 0.46

# next compound below
Prompt line: Return logP for the following compound: "OC[C@H]1O[C@H](OCCOc2ccc(-c3c4nc(c(-c5ccccc5)c5ccc([nH]5)c(-c5ccc(OCCO[C@H]6O[C@H](CO)[C@@H](O)[C@@H](O)[C@@H]6O)cc5)c5ccc([nH]5)c(-c5ccc(OCCO[C@H]6O[C@H](CO)[C@@H](O)[C@H](O)[C@@H]6O)cc5)c5nc3C=C5)C=C4)cc2)[C@@H](O)[C@@H](O)[C@@H]1O"
Response line: 0.78
